B1: RNA-binding E3 ubiquitin-protein ligase MEX3C, residues 325 to 391; numbered along this chain, Q5U5Q3 (parent)
chain: GQTTVQVRVPYRVVGLVVGPKGATIKRIQQQTHTYIVTPSRDKEPVFEVTGMPENVDRAREEIEMHI

Variants of: B1
Test: abundance fitness (aPCA) (normalised: wild type 0, dead -1); higher = more abundant; growth selection in yeast, the domain comes from the species named
Conditions: Homo sapiens
value_type: abundance fitness
I'd appreciate a reply containing only the number, no unit.

Use these answered entries as a reference point.
{"columns": ["alteration", "numeric_result"],
 "data": [
  ["T24R", -0.366],
  ["P39H", -0.402],
  ["G51H", -0.789],
  ["E44L", -0.582],
  ["E48N", -0.733]
]}

Can you share its abundance fitness? I mean this variant: I28R
-0.419

Follow-up entry: T50S
-0.254

Please give the result for P20R too.
-0.039

Another variant: N55E
-0.401

Try the variant T38W
-0.384
